# target.of.assay: human ether-à-go-go-related gene (hERG) potassium channel (human, UniProt Q12809);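 further: peak tail current of the secondary pulse compared with the same well before compound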
# Sequence (Q12809 whole entry, looked up): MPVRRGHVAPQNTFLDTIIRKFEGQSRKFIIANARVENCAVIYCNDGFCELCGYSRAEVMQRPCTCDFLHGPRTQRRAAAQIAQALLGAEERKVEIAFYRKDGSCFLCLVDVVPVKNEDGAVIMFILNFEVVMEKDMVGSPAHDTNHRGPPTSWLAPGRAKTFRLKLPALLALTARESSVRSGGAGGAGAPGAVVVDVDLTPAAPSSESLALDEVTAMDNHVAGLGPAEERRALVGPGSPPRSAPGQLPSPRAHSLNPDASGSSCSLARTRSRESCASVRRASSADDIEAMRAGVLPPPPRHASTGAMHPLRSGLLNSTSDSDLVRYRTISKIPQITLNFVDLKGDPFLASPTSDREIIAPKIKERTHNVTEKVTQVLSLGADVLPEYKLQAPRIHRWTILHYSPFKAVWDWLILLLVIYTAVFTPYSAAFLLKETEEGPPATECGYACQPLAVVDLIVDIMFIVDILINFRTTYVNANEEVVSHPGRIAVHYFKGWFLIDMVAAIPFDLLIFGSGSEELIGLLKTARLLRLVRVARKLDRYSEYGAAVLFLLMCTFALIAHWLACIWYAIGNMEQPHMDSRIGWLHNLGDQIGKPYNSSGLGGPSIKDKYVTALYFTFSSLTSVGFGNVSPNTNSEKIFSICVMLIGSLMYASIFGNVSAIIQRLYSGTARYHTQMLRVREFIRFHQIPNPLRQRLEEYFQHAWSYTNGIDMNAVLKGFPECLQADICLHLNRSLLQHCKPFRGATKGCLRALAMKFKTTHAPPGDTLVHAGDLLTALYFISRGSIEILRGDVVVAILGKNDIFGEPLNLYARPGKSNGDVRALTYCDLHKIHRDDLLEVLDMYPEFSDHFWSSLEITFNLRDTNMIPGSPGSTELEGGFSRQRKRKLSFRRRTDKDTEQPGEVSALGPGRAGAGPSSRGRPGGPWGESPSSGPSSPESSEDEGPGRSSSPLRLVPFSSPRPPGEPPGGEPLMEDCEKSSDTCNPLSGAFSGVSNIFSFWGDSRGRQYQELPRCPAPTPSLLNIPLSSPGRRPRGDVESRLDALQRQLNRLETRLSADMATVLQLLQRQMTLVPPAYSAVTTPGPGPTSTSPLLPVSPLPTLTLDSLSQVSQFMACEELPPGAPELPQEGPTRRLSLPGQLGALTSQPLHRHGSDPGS
# procedure.details: primary screen, population patch clamp on CHO cells stably expressing hERG; higher = less effect of the substance
The campaign covered roughly 310,000 compounds. About 14,000 (4.5%) showed an effect of 50% or more. Effects have a minus sign here. The sample holds strong results, similar compounds and a random draw of the others, so the mix is not that of the screen.
assay.endpoint: hERG current change (%, negative = inhibition) at 10uM (%)
Report only the number, with the unit % understood.

Given "CCc1cc[n+](C2=C([O-])c3ccccc3C(=O)/C2=N\S(=O)(=O)c2cccs2)cc1" , state its recorded hERG current change (%, negative = inhibition) at 10uM.
-11.6

Which value of hERG current change (%, negative = inhibition) at 10uM has been reported for Cc1ccc(CN2CCCC(CO)(Cc3ccccc3C)C2)s1 (stereo not shown) in the records?
-37.7

Which hERG current change (%, negative = inhibition) at 10uM reading was recorded for the compound Cc1ccccc1CC1(CO)CCCN(Cc2nc(-c3cccs3)oc2C)C1 (stereo not shown) ?
-61.1

Quick one: hERG current change (%, negative = inhibition) at 10uM for "Cc1oc(-c2cccs2)nc1CN1CC[C@@](O)(c2ccccc2)[C@H]2CCCC[C@@H]21" ?
11.8

Name the recorded hERG current change (%, negative = inhibition) at 10uM for COCc1ccc(CN2CCCC(CO)(Cc3cccc(OC)c3)C2)o1 (stereo not shown) .
-26.2

Which hERG current change (%, negative = inhibition) at 10uM is reported for this compound? "Cc1cc(-c2nnc(CCC(=O)NCc3ccc(F)c(F)c3)o2)no1"
2.95

Look up hERG current change (%, negative = inhibition) at 10uM: COc1cccc(CN2CCN(Cc3nc(-c4cccs4)oc3C)CC2CCO)c1 (stereo not shown)
-57

Entry under review: Cc1ccccc1CC1(CO)CCCN(Cc2ccccc2Cl)C1 (stereo not shown) . Reported hERG current change (%, negative = inhibition) at 10uM?
-25.6

Given the compound Cc1oc(-c2cccs2)nc1CN1CCN(C(C)C)C(CCO)C1 (stereo not shown) , what is its reported hERG current change (%, negative = inhibition) at 10uM?
4.95

Please give the measured hERG current change (%, negative = inhibition) at 10uM for this compound: COc1cccc(CC2(CO)CCCN(Cc3ccc(CO)o3)C2)c1 (stereo not shown)
-7.04

---

# target.of.assay: human ether-à-go-go-related gene (hERG) potassium channel (human, UniProt Q12809);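 further: peak tail current of the secondary pulse compared with the same well before compound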
# procedure.details: primary screen, population patch clamp on CHO cells stably expressing hERG; higher = less effect of the substance
The campaign covered roughly 310,000 compounds. About 14,000 (4.5%) showed an effect of 50% or more. The effect is printed as a negative number. Only a selection was taken, and strong results are over-represented in it overall.
assay.endpoint: hERG current change (%, negative = inhibition) at 10uM (%)
I only need the number, in %, no unit after it.

What measured hERG current change (%, negative = inhibition) at 10uM goes with CC1CN(C2=Nc3cccc4cccc2c34)CC(C)O1 (stereo not drawn) ?
-47.6

Request the reported hERG current change (%, negative = inhibition) at 10uM associated with "Cl.O=C(O)CCNc1nc(-c2ccccc2)nc2ccccc12"
2.17

I would be grateful if you could share the reported hERG current change (%, negative = inhibition) at 10uM for "Cc1noc(C)c1COc1cccc(C(=O)N(C)Cc2nc3ccccc3c(=O)[nH]2)c1" .
-23.5

Need hERG current change (%, negative = inhibition) at 10uM, item "c1cc2c3c(cccc3c1)C(N1CCOCC1)=N2"
-31

# hERG current change (%, negative = inhibition) at 10uM lookup, item "c1cc2c3c(cccc3c1)C(N1CCCCC1)=N2"
-66.2

State the recorded hERG current change (%, negative = inhibition) at 10uM for this entry: "O=S1(=O)N=C(N2CCN(c3ccc(F)cc3)CC2)c2ccccc21"
-8.87

Taken from paper PMC4336329.
